Assay: Photo-DSC/DSC cationic curing activity of PAGs in Epon 828
Conditions: Epon 828; no prior light exposure
Please provide measured DSC Only (dark) Onset Temp for the entries that follow.
Give the number; C.° is assumed, so skip it.

Asked: Please report the measured DSC Only (dark) Onset Temp for CC(C)(C)c1ccc([I+]c2ccc(C(C)(C)C)cc2)cc1.CC(C)(C)c1ccc([I+]c2ccc(C(C)(C)C)cc2)cc1.O=S(=O)([O-])C(F)(F)C(F)(F)C(F)(F)C(F)(F)S(=O)(=O)[O-] [PAG2, [(p-(CH3)3C—C6H4)2I^+]2-O3S(CF2)4SO3—]
Given back: 175

Asked: Please report the measured DSC Only (dark) Onset Temp for CC(C)(C)c1ccc([I+]c2ccc(C(C)(C)C)cc2)cc1.O=S(=O)([O-])C(F)(F)C(F)(F)C(F)(F)C(F)(F)F [DTBPI-ONf, reference compound]
Given back: 175

Asked: Please report the measured DSC Only (dark) Onset Temp for CC(C)(C)c1ccc([I+]c2ccc(C(C)(C)C)cc2)cc1.CC(C)(C)c1ccc([I+]c2ccc(C(C)(C)C)cc2)cc1.O=S(=O)([O-])C(F)(F)C(F)(F)C(F)(F)S(=O)(=O)[O-] [PAG1, [(p-(CH3)3C—C6H4)2I^+]2-O3S(CF2)3SO3—]
Given back: 180

Asked: Please report the measured DSC Only (dark) Onset Temp for CC(C)(C)c1ccc([I+]c2ccc(C(C)(C)C)cc2)cc1.O=S(=O)([O-])C(F)(F)C(F)(F)C(F)(F)C(F)(F)C(F)(F)C(F)(F)C(F)(F)C(F)(F)F [DTBPI-PFOS, reference compound]
Given back: 175

###

Assay: Photo-DSC/DSC cationic curing activity of PAGs in ERL-4221
Parameters: unit not given here
Conditions: ERL-4221; light exposure at 30° C.
REPORTED PROPERTY: PDSC Induction Time
Could you respond with only the numeric value?

Asked: Please report the measured PDSC Induction Time for CC(C)(C)c1ccc([I+]c2ccc(C(C)(C)C)cc2)cc1.CC(C)(C)c1ccc([I+]c2ccc(C(C)(C)C)cc2)cc1.O=S(=O)([O-])C(F)(F)C(F)(F)C(F)(F)C(F)(F)S(=O)(=O)[O-] [PAG2, [(p-(CH3)3C—C6H4)2I^+]2-O3S(CF2)4SO3—]
Given back: 14.8

Asked: Please report the measured PDSC Induction Time for CC(C)(C)c1ccc([I+]c2ccc(C(C)(C)C)cc2)cc1.CC(C)(C)c1ccc([I+]c2ccc(C(C)(C)C)cc2)cc1.O=S(=O)([O-])C(F)(F)C(F)(F)C(F)(F)S(=O)(=O)[O-] [PAG1, [(p-(CH3)3C—C6H4)2I^+]2-O3S(CF2)3SO3—]
Given back: 15.1

Asked: Please report the measured PDSC Induction Time for CC(C)(C)c1ccc([I+]c2ccc(C(C)(C)C)cc2)cc1.O=S(=O)([O-])C(F)(F)C(F)(F)C(F)(F)C(F)(F)F [DTBPI-ONf, reference compound]
Given back: 15.7

Asked: Please report the measured PDSC Induction Time for CC(C)(C)c1ccc([I+]c2ccc(C(C)(C)C)cc2)cc1.O=S(=O)([O-])C(F)(F)C(F)(F)C(F)(F)C(F)(F)C(F)(F)C(F)(F)C(F)(F)C(F)(F)F [DTBPI-PFOS, reference compound]
Given back: 14.8
